# ASSAY_TEXT: Cmax in C57BL/6 mouse brain at 2.32 mg/kg, iv
# Format: ADME, organism-based
# Set-up: route intravenous, dose 2.32 mg/kg
ENDPOINT_NAME: Cmax (ng/mL)

In [3]: df
Out[3]:
                                   compound  display_unit  readout_number
0  C[C@@H](c1ccc2ccc(O[C@H]3CC[C@@H](C(F)(F)F)CC3)c(C(F)(F)F)c2c1)N1C2CCC1CC(C(=O)O)C2 (stereo partly specified)         ng/mL             274

###

# ASSAY_TEXT: AUC (0 to 24 hrs) in C57BL/6 mouse brain at 2.32 mg/kg, iv
# Assay type: ADME, organism-based
# Parameters: time < 24 hr, route intravenous, dose 2.32 mg/kg
ENDPOINT_NAME: AUC(0-t) at 24 h (ng·h/mL)

>>> print(df.to_string())
                                   compound     endpoint_name  display_unit  readout_number
0  C[C@@H](c1ccc2ccc(O[C@H]3CC[C@@H](C(F)(F)F)CC3)c(C(F)(F)F)c2c1)N1C2CCC1CC(C(=O)O)C2 (stereo partly specified)  AUC(0-t) at 24 h       ng·h/mL            3020

###

# ASSAY_TEXT: Tmax in C57BL/6 mouse brain at 10 mg/kg, po
# Format: ADME, organism-based
ENDPOINT_NAME: Tmax (h)

>>> df
                                   molecule  readout_number
0  C[C@@H](c1ccc2ccc(O[C@H]3CC[C@@H](C(F)(F)F)CC3)c(C(F)(F)F)c2c1)N1C2CCC1CC(C(=O)O)C2 (stereo partly specified)               7

###

# ASSAY_TEXT: Tmax in dog at 1.0 mg/kg, po
# Assay type: ADME, organism-based, Canis lupus familiaris
# MEASUREMENT_PARAMETERS: in vivo
ENDPOINT_NAME: Tmax (h)

>>> df
                                   compound  endpoint_name  readout_number
0  C[C@@H](c1ccc2ccc(O[C@H]3CC[C@@H](C(F)(F)F)CC3)c(C(F)(F)F)c2c1)N1C2CCC1CC(C(=O)O)C2 (stereo partly specified)           Tmax               2

###

# ASSAY_TEXT: Clearance in cynomolgus monkey at 0.2 mg/kg, iv
# Type: ADME, organism-based, Macaca fascicularis
# MEASUREMENT_PARAMETERS: in vivo
ENDPOINT_NAME: clearance (mL/min/kg)

>>> print(df.to_string())
                                   compound  endpoint_name  readout_number
0  C[C@@H](c1ccc2ccc(O[C@H]3CC[C@@H](C(F)(F)F)CC3)c(C(F)(F)F)c2c1)N1C2CCC1CC(C(=O)O)C2 (stereo partly specified)      clearance             9.3

###

# TARGET_UNDER_TEST: Cytochrome P450 1A2 (Homo sapiens)
# Sequence (P05177 whole entry): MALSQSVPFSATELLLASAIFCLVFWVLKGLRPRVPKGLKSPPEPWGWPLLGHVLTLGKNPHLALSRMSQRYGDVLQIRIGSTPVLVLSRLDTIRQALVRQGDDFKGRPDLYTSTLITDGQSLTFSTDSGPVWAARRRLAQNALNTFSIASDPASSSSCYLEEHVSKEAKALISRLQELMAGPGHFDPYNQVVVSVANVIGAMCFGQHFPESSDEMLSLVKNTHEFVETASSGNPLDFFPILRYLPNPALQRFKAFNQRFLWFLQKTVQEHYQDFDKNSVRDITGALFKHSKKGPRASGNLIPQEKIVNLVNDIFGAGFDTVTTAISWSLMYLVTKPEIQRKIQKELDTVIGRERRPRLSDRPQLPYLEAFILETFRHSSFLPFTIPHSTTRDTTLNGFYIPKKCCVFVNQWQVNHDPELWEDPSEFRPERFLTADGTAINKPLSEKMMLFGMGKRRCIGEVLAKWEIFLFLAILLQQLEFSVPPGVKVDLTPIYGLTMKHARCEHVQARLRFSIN
pIC50: −log10 of the molar value.
ENDPOINT_NAME: pIC50

>>> print(df.to_string())
                                   molecule  endpoint_name  result
0  C[C@@H](c1ccc2ccc(O[C@H]3CC[C@@H](C(F)(F)F)CC3)c(C(F)(F)F)c2c1)N1C2CCC1CC(C(=O)O)C2 (stereo partly specified)          pIC50  < 5.00

###

# TARGET_UNDER_TEST: Cytochrome P450 3A4 (Homo sapiens)
# Sequence (P08684 whole entry): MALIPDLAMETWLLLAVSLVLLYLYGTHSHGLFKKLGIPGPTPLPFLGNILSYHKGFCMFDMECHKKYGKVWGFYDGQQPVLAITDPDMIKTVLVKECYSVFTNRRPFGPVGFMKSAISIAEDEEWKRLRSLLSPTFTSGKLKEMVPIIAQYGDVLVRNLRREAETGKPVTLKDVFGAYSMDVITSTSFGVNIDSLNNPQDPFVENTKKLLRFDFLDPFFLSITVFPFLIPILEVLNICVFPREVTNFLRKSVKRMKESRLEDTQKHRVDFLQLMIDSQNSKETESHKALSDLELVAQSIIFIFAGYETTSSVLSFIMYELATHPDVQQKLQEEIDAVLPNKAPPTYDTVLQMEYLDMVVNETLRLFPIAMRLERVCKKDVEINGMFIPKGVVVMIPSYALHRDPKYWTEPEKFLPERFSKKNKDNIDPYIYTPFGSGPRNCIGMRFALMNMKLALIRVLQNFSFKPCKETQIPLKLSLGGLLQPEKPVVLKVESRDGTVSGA
ENDPOINT_NAME: IC50

In [3]: df
Out[3]:
                                   compound   result
0  C[C@@H](c1ccc2ccc(O[C@H]3CC[C@@H](C(F)(F)F)CC3)c(C(F)(F)F)c2c1)N1C2CCC1CC(C(=O)O)C2 (stereo partly specified)  > 10 µM

###

# ASSAY_TEXT: Cmax in dog at 1.0 mg/kg, po
# Type: ADME, organism-based, Canis lupus familiaris
# Parameters: route oral, dose 1 mg/kg
# MEASUREMENT_PARAMETERS: in vivo
ENDPOINT_NAME: Cmax (ng/mL)

                                   compound  readout_number
0  C[C@@H](c1ccc2ccc(O[C@H]3CC[C@@H](C(F)(F)F)CC3)c(C(F)(F)F)c2c1)N1C2CCC1CC(C(=O)O)C2 (stereo partly specified)             376

###

# TARGET_UNDER_TEST: Lysophosphatidic acid receptor 1 (Homo sapiens)
# Sequence (Q92633 whole entry): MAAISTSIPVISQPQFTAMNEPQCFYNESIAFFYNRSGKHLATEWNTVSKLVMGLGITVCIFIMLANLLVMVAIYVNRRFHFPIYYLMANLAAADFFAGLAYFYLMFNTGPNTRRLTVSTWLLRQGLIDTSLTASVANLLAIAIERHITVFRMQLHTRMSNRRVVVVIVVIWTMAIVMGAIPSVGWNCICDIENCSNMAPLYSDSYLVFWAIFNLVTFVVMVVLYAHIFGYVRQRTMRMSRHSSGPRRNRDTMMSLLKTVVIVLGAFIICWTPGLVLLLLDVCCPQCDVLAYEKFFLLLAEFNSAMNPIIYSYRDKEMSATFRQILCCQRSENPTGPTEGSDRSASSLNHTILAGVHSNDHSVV
pIC50: −log10 of the molar value.
ENDPOINT_NAME: pIC50

                                   compound  result
0  C[C@@H](c1ccc2ccc(O[C@H]3CC[C@@H](C(F)(F)F)CC3)c(C(F)(F)F)c2c1)N1C2CCC1CC(C(=O)O)C2 (stereo partly specified)  < 5.00

###

# ASSAY_TEXT: Clearance in rat at 1.0 mg/kg, iv
# Format: ADME, organism-based
# MEASUREMENT_PARAMETERS: in vivo, time <=24 hrs
ENDPOINT_NAME: clearance (mL/min/kg)

                                   compound  readout_number
0  C[C@@H](c1ccc2ccc(O[C@H]3CC[C@@H](C(F)(F)F)CC3)c(C(F)(F)F)c2c1)N1C2CCC1CC(C(=O)O)C2 (stereo partly specified)              29

###

# ASSAY_TEXT: Drug concentration in Sprague-Dawley rat at 0.3 mg/kg, po after 6 hrs by LC-MS/MS analysis
# Type: ADME, organism-based
# MEASUREMENT_PARAMETERS: in vivo, read-out: Drug uptake
ENDPOINT_NAME: concentration at 6 h (ng/mL)

>>> print(df.to_string())
                                   molecule         endpoint_name  readout_number
0  C[C@@H](c1ccc2ccc(O[C@H]3CC[C@@H](C(F)(F)F)CC3)c(C(F)(F)F)c2c1)N1C2CCC1CC(C(=O)O)C2 (stereo partly specified)  concentration at 6 h             4.3

###

# ASSAY_TEXT: Volume of distribution at steady state in dog at 0.2 mg/kg, iv
# Assay type: ADME, organism-based, Canis lupus familiaris
# MEASUREMENT_PARAMETERS: in vivo, read-out: Vdss
ENDPOINT_NAME: Vd (L/kg)

>>> df
                                   molecule  readout_number
0  C[C@@H](c1ccc2ccc(O[C@H]3CC[C@@H](C(F)(F)F)CC3)c(C(F)(F)F)c2c1)N1C2CCC1CC(C(=O)O)C2 (stereo partly specified)               2

###

# ASSAY_TEXT: Half life in C57BL/6 mouse plasma at 2.32 mg/kg
# Format: ADME, organism-based
ENDPOINT_NAME: half-life (h)

>>> print(df.to_string())
                                   molecule  display_unit  readout_number
0  C[C@@H](c1ccc2ccc(O[C@H]3CC[C@@H](C(F)(F)F)CC3)c(C(F)(F)F)c2c1)N1C2CCC1CC(C(=O)O)C2 (stereo partly specified)             h            4.72

###

# ASSAY_TEXT: Cmax in cynomolgus monkey at 1.0 mg/kg, po
# Format: ADME, organism-based, Macaca fascicularis
# Parameters: route oral, dose 1 mg/kg
# MEASUREMENT_PARAMETERS: in vivo
ENDPOINT_NAME: Cmax

In [3]: df
Out[3]:
                                   compound  endpoint_name    result
0  C[C@@H](c1ccc2ccc(O[C@H]3CC[C@@H](C(F)(F)F)CC3)c(C(F)(F)F)c2c1)N1C2CCC1CC(C(=O)O)C2 (stereo partly specified)           Cmax  89 ng/mL
